- System name: Lysine-specific demethylase 5A [1-801] (Homo sapiens, UniProt P29375)
- Sequence (P29375 whole entry): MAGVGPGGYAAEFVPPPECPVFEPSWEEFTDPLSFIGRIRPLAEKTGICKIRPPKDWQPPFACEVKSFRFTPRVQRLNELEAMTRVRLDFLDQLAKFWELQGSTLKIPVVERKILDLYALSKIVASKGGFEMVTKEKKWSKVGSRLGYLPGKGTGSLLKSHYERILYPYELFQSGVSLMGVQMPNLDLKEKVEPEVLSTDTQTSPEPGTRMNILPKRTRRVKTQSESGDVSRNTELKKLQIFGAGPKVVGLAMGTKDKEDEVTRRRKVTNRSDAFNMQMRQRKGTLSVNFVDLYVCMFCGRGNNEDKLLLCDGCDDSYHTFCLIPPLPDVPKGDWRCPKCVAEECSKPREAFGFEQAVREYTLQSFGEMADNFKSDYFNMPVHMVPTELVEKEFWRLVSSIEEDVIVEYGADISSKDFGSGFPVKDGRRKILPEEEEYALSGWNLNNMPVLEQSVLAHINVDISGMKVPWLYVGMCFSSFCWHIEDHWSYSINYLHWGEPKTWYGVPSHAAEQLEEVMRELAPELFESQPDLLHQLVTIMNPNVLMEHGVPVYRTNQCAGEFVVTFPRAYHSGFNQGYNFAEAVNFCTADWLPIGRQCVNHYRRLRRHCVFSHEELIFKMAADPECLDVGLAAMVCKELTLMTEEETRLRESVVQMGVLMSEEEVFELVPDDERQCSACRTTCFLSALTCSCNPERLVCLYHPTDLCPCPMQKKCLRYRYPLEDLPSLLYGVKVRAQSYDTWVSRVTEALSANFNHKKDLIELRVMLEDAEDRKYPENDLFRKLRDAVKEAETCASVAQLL

{"columns": ["Structure smiles", "IC50"],
 "data": [
  ["O=C(O)CCNc1cc(N2CCc3ccccc3CC2)nc(-c2ccccn2)n1", "3900 nM"],
  ["CCN(CCN(C)C)C(=O)CNCc1cc(C(=O)O)ccn1", "7 nM"],
  ["O=C(O)CNC(=O)C(=O)O", "6900 nM"],
  ["O=C(O)c1ccnc(C(=O)O)c1", "1300 nM"]
]}

###

- System name: Lysine-specific demethylase 5B (Homo sapiens, UniProt Q9UGL1)
- Sequence (Q9UGL1 whole entry): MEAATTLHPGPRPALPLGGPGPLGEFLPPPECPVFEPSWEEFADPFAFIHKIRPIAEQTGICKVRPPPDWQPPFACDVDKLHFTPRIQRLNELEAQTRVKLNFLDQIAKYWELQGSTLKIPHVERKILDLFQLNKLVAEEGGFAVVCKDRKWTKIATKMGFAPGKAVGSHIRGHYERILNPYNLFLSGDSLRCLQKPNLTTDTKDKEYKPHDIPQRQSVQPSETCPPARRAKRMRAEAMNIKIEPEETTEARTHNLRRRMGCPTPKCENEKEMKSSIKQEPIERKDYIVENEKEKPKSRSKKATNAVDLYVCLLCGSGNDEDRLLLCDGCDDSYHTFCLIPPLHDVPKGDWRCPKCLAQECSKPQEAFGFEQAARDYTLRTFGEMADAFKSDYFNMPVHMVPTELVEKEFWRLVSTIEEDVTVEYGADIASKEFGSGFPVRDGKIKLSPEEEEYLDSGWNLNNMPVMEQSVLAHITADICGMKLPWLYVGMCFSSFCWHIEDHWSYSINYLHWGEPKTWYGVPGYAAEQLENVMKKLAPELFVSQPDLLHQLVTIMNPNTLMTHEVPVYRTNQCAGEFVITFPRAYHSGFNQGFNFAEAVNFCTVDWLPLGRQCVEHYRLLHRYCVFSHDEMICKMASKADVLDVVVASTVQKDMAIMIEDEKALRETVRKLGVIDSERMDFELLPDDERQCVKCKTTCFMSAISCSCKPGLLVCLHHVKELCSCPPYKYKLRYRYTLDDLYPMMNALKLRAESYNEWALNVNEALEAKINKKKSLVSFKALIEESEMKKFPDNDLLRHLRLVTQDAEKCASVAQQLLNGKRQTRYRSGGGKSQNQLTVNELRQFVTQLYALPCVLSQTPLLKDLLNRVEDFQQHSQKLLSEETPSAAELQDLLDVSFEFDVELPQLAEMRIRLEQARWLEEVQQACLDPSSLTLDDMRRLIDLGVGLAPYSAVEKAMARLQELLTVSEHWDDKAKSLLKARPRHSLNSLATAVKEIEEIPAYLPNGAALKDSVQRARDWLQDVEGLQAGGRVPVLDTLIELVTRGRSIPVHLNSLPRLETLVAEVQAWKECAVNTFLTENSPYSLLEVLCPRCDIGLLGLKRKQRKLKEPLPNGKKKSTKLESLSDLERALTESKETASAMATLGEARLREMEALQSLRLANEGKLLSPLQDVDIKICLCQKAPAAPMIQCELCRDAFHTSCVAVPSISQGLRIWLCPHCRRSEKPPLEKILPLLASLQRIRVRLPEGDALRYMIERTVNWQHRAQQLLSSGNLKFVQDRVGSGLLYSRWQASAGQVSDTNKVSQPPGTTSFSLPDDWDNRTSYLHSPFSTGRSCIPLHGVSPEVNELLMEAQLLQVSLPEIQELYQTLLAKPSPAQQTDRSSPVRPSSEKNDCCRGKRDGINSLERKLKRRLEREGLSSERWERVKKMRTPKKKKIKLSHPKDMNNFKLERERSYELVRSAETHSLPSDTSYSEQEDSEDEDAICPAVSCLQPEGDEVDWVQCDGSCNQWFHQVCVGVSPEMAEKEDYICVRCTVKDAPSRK
pIC50: −log10 of the molar value.

{"columns": ["Structure smiles", "pIC50"],
 "data": [
  ["O=C(O)CNC(=O)C(=O)O", 4.61]
]}
